Numbers sourced from paper PMC11321683.

molecular target: MdWRKY10 (Malus domestica, UniProt D9ZJE9 1-528); test: EMSA; EMSA with LightShift chemiluminescent kit (Thermo) per manufacturer; buffer, pH and temperature not stated; conditions: protein: recombinant; tags: His (pET-32a(+) vector); label: 3' biotin; blunt
Sequence (D9ZJE9 entry or part of it): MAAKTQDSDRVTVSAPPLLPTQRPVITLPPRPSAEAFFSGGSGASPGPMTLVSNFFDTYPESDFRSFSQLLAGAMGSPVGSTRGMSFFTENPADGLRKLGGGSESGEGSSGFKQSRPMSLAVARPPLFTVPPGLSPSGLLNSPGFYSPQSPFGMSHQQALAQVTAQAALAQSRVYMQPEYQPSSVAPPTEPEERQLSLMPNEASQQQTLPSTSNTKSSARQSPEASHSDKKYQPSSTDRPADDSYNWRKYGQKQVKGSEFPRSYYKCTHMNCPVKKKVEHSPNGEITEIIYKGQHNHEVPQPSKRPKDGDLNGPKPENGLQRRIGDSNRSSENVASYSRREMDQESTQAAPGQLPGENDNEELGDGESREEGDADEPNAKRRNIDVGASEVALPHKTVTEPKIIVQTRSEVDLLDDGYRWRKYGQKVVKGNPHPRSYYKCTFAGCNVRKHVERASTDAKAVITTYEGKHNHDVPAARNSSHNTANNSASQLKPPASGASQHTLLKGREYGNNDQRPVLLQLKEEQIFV

binder: proMdF3'5'H W2 (dsDNA) DNA 1: TAAATAGTATCTAACGAAAATTGACCGCACGATATACAATGAACGA DNA 2: TCGTTCATTGTATATCGTGCGGTCAATTTTCGTTAGATACTATTTA
binding result: binds
--
binder: proMdUFGT W5 (dsDNA) DNA 1: TTTTTTGCAACAAATTACCTTTGACTAACAAAACAAGGATATTTCT DNA 2: AGAAATATCCTTGTTTTGTTAGTCAAAGGTAATTTGTTGCAAAAAA
binding result: binds
--
binder: proMdUFGT W5 mutant (dsDNA) DNA 1: TTTTTTGCAACAAATTACCTTTTCCTAACAAAACAAGGATATTTCT DNA 2: AGAAATATCCTTGTTTTGTTAGGAAAAGGTAATTTGTTGCAAAAAA
binding result: no binding
--
binder: proMdF3'5'H W3 mutant (dsDNA) DNA 1: TCACTCATATAGGTAAACTTTGGAAAGGATGTTCATGTAATTATAA DNA 2: TTATAATTACATGAACATCCTTTCCAAAGTTTACCTATATGAGTGA
binding result: no binding
